- protocol_notes: Cytotoxicity against HEK293T cells assessed as cell viability at 5 uM after 48 hrs
- Type: cell-based, HEK-293T
- test_parameters: human, read-out: Activity
Kindly state viability at 48 h, 5 µM for each of the entries shown.
Use % as the unit, but write only the number.

Query :: # return recorded viability at 48 h, 5 µM for entry CCCc1ccc(OCCNS(=O)(=O)c2c(C)cc(C)cc2C)cc1
Result :: 72.3

Query :: Provide measured viability at 48 h, 5 µM value, entry: O=S(=O)(Nc1ccc2c(c1)OCCO2)c1ccc2ccccc2c1
Result :: 87.5

Query :: Name the recorded viability at 48 h, 5 µM of the compound listed here: CC(C)(C)c1ccc(S(=O)(=O)Nc2ccc3c(c2)OCCO3)cc1
Result :: 87.7

// provenance: ChEMBL document CHEMBL3352524
